target: CDK4/cyclinD1 (Homo sapiens, UniProt P11802); assay: CDKi biochemical assay (TR-FRET, phosphorylation of S780 on RB1 peptide); conditions: CDK4/cyclinD1 20 pM, 1 mM ATP, 60 min at 25° C.
endpointLabel: pIC50
Schema: pIC50 number; meaning minus log10 of the concentration expressed in molar units.

Q) Give pIC50 for O=C1N([C@@H]2CCC[C@@H](O)C2)c2nc(Nc3c[nH]nc3O[C@H]3CC3(F)F)ncc2C12CC2
A) 5.58

Q) Give pIC50 for O=C1N([C@@H]2CCC[C@@H](O)C2)c2nc(Nc3c[nH]nc3O)ncc2C12CC2
A) 5.83

Q) Give pIC50 for Cc1n[nH]cc1Nc1ncc2c(n1)N([C@H]1C[C@H](O)CC(C)(C)C1)C(=O)C21CC1
A) 5.41

Q) Give pIC50 for CCOc1n[nH]cc1Nc1ncc2c(n1)N([C@@H]1CCC[C@@H](O)C1)C(=O)C21CC1
A) 5.02

###

target: CDK4/cyclinD1 (Homo sapiens, UniProt P11802); assay: CDKi biochemical assay (TR-FRET, phosphorylation of S780 on RB1 peptide); conditions: CDK4/cyclinD1 20 pM, 1 mM ATP, 60 min at 25° C.
endpointLabel: pIC50
Schema: pIC50 number; meaning minus log10 of the concentration expressed in molar units.

[
  {
    "compound": "COCCOc1n[nH]cc1Nc1ncc2c(n1)N([C@@H]1CCC[C@@H](O)C1)C(=O)C21CC1 [Example 22]",
    "pIC50": 5.28
  },
  {
    "compound": "O=C1N([C@@H]2CCC[C@@H](O)C2)c2nc(Nc3c[nH]nc3O[C@H]3COC[C@H]3F)ncc2C12CC2 [Example 27]",
    "pIC50": 5.89
  },
  {
    "compound": "O=C1N([C@@H]2CCC[C@@H](O)C2)c2nc(Nc3c[nH]nc3OCC3(F)COC3)ncc2C12CC2 [Example 48]",
    "pIC50": 5.81
  }
]

Q) Give pIC50 for O=C1N([C@@H]2CCC[C@@H](O)C2)c2nc(Nc3c[nH]nc3O[C@@H]3COC[C@@H]3F)ncc2C12CC2 [Example 26]
A) 5.27

Q) Give pIC50 for COCc1ncc(Nc2ncc3c(n2)N([C@@H]2CCC[C@@H](O)C2)C(=O)C32CC2)[nH]1 [Example 11]
A) 5.24

Q) Give pIC50 for O=C1N([C@@H]2CCC[C@@H](O)C2)c2nc(Nc3c[nH]nc3-c3cnn4ccccc34)ncc2C12CC2 [Example 28]
A) 5.67

Q) Give pIC50 for O=C1N([C@@H]2CCC[C@@H](O)C2)c2nc(Nc3c[nH]nc3O[C@H]3CCOC3)ncc2C12CC2 [Example 78]
A) 5.59

###

target: CDK6/cyclinD3 (Homo sapiens); assay: CDKi biochemical assay (TR-FRET, phosphorylation of S780 on RB1 peptide); details: CDK6/cyclinD3 10 pM, 1 mM ATP, 60 min at 25° C.
Excerpt: […]
Listed next: entries and their corresponding IC50.
Kindly provide the numeric value in µM only, without the unit symbol.

[
  {
    "molecule": "Cn1ncc(-c2n[nH]cc2Nc2ncc3c(n2)N([C@@H]2CCC[C@@H](O)C2)C(=O)C32CC2)c1C(F)F [Example 31]",
    "endpointUnit": "µM",
    "obsValue": 9.7
  }
]

Consider the additional molecule presented here.
Q) Give IC50 for N#Cc1n[nH]cc1Nc1ncc2c(n1)N([C@@H]1CCC[C@@H](O)C1)C(=O)C21CC1 [Example 20]
A) 2.66
